Ref: the supplement of paper PMC10307832

- System: LCLC-103H
- ASSAY_PROTOCOL: relative viability (nuclei count vs DMSO), 5 days (fraction); higher = more cells survive
- MEASUREMENT_SETUP: first compound 0.4 µM
QUANTITY_NAME: relative viability
Keep the answer to the number alone.

Sample answers from the record:
O=C(O)c1ccc(-c2c[nH]c3ncc(-c4ccccc4)cc23)cc1C1CCCC1 + O=C(c1cc(Cc2n[nH]c(=O)c3ccccc23)ccc1F)N1CCN(C(=O)C2CC2)CC1 [Olaparib] (partner 8 µM)	0.758
O=C(O)c1ccc(-c2c[nH]c3ncc(-c4ccccc4)cc23)cc1C1CCCC1 + N=C(N)NC(=N)NCCc1ccccc1 [Phenformin] (partner 250 µM)	0.389
O=C(O)c1ccc(-c2c[nH]c3ncc(-c4ccccc4)cc23)cc1C1CCCC1 + Nc1ncn([C@H]2C[C@H](O)[C@@H](CO)O2)c(=O)n1 [Decitabine] (partner 2 µM)	0.746
O=C(O)c1ccc(-c2c[nH]c3ncc(-c4ccccc4)cc23)cc1C1CCCC1 + CCNC(=O)c1noc(-c2cc(C(C)C)c(O)cc2O)c1-c1ccc(CN2CCOCC2)cc1 [Luminespib] (partner 0.01 µM)	0.84

Recorded relative viability of O=C(O)c1ccc(-c2c[nH]c3ncc(-c4ccccc4)cc23)cc1C1CCCC1 + CC(=O)c1c(C)c2cnc(Nc3ccc(N4CCNCC4)cn3)nc2n(C2CCCC2)c1=O [Palbociclib] (partner 0.5 µM) , please.
0.465

Recorded relative viability of O=C(O)c1ccc(-c2c[nH]c3ncc(-c4ccccc4)cc23)cc1C1CCCC1 + CC(=O)Nc1cccc(-n2c(=O)n(C3CC3)c(=O)c3c(Nc4ccc(I)cc4F)n(C)c(=O)c(C)c32)c1 [Trametinib] (partner 0.02 µM) , please.
0.68

Recorded relative viability of O=C(O)c1ccc(-c2c[nH]c3ncc(-c4ccccc4)cc23)cc1C1CCCC1 + C[C@@H](Oc1cc(-c2cnn(C3CCNCC3)c2)cnc1N)c1c(Cl)ccc(F)c1Cl [Crizotinib] (partner 1 µM) , please.
1.03

---

- System: SK-LU-1
- ASSAY_PROTOCOL: relative viability (nuclei count vs DMSO), 5 days (fraction); higher = more cells survive
- MEASUREMENT_SETUP: first compound 2.53 µM
QUANTITY_NAME: relative viability
Keep the answer to the number alone.

C=C1C(=O)O[C@@H](CCCCCCCC)[C@@H]1C(=O)O [C-75] + Cc1nc(Nc2ncc(C(=O)Nc3c(C)cccc3Cl)s2)cc(N2CCN(CCO)CC2)n1 [Dasatinib] (partner 0.075 µM)	0.127

Lab note: need relative viability with SK-LU-1 for entry Oc1nc(-c2ccc(C(F)(F)F)cc2)nc2c1CSCC2 [XAV939] + C[C@]1(O)C[C@@H](c2nc(-c3ccc4ccc(-c5ccccc5)nc4c3)c3c(N)nccn32)C1 [Linsitinib] (partner 1 µM) , please look it up.
1.07

---

Catalogue of relative viability readings, one per entry.
- System: NCI-H1651
- ASSAY_PROTOCOL: relative viability (nuclei count vs DMSO), 5 days (fraction); higher = more cells survive
- MEASUREMENT_SETUP: first compound 0.05 µM
Keep the answer to the number alone.

Sample answers from the record:
CC1(C)CCC(c2ccc(Cl)cc2)=C(CN2CCN(c3ccc(C(=O)NS(=O)(=O)c4ccc(N[C@H](CCN5CCOCC5)CSc5ccccc5)c(S(=O)(=O)C(F)(F)F)c4)cc3)CC2)C1 [Navitoclax] + Nc1ncn([C@H]2C[C@H](O)[C@@H](CO)O2)c(=O)n1 [Decitabine] (partner 2 µM)	0.42
CC1(C)CCC(c2ccc(Cl)cc2)=C(CN2CCN(c3ccc(C(=O)NS(=O)(=O)c4ccc(N[C@H](CCN5CCOCC5)CSc5ccccc5)c(S(=O)(=O)C(F)(F)F)c4)cc3)CC2)C1 [Navitoclax] + Cc1nc(Nc2ncc(C(=O)Nc3c(C)cccc3Cl)s2)cc(N2CCN(CCO)CC2)n1 [Dasatinib] (partner 0.075 µM)	0.308
CC1(C)CCC(c2ccc(Cl)cc2)=C(CN2CCN(c3ccc(C(=O)NS(=O)(=O)c4ccc(N[C@H](CCN5CCOCC5)CSc5ccccc5)c(S(=O)(=O)C(F)(F)F)c4)cc3)CC2)C1 [Navitoclax] + NC(=O)Nc1cc(-c2cccc(F)c2)sc1C(=O)N[C@H]1CCCNC1 [AZD7762] (partner 0.2 µM)	0.335
CC1(C)CCC(c2ccc(Cl)cc2)=C(CN2CCN(c3ccc(C(=O)NS(=O)(=O)c4ccc(N[C@H](CCN5CCOCC5)CSc5ccccc5)c(S(=O)(=O)C(F)(F)F)c4)cc3)CC2)C1 [Navitoclax] + N=C(N)NC(=N)NCCc1ccccc1 [Phenformin] (partner 250 µM)	0.298

Recorded relative viability of CC1(C)CCC(c2ccc(Cl)cc2)=C(CN2CCN(c3ccc(C(=O)NS(=O)(=O)c4ccc(N[C@H](CCN5CCOCC5)CSc5ccccc5)c(S(=O)(=O)C(F)(F)F)c4)cc3)CC2)C1 [Navitoclax] + C[C@@H](Oc1cc(-c2cnn(C3CCNCC3)c2)cnc1N)c1c(Cl)ccc(F)c1Cl [Crizotinib] (partner 1 µM) , please.
0.78
